# Test system: Nucleic Acid
# Run Description: Binding affinity to Poly A-Poly U RNA assessed as change in melting temperature at 0.5 compound to polynucleotide ratio by UV-VIS spectral study
# Type: nucleic-acid assay
The entries below are paired with their reported ΔTm.
Only the number, expressed in °C, is required.

| Structure As Smiles | Unit Text | Recorded Number |
| --- | --- | --- |
| Cl.Cl.N=C(N)c1ccc(C(=O)Nc2cccc(NC(=O)c3ccc(C(=N)N)cc3)n2)cc1 | °C | 18.7 |
| CC(C)NC(=N)c1ccc(C(=O)Nc2cccc(NC(=O)c3ccc(C(=N)NC(C)C)cc3)n2)cc1.Cl.Cl | °C | 5.7 |

Provide measured ΔTm value, entry: CC(C)NC(=N)c1ccc(NC(=O)c2ccc(C(=O)Nc3ccc(C(=N)NC(C)C)cc3)o2)cc1.Cl.Cl
20.1

Report measured ΔTm; entry is CC(C)NC(=N)c1ccc(NC(=O)c2cccc(C(=O)Nc3ccc(C(=N)NC(C)C)cc3)n2)cc1.Cl.Cl
3.7
